Test system: NCI-H460 lung
Test: NCI-60 one-dose screen, 48 h
Details: 10 µM unless noted
Compounds without any hit were thinned out: in the full panel of roughly 83,000, 20% have a hit. Activity calls are given as the source filed them. How the source made its calls: active means growth percent below 10; inactive means the rest.
Valid outcomes are listed here; reply with one: Y = active, N = inactive

Solved entries:
                           substance_smiles  label_value
0  CCOC(=O)c1cnc2c(-c3ccc(Cl)c(Cl)c3)cnn2c1            N
1  Brc1cccc(-c2cc(-c3ccc4c(c3)OC=CO4)[nH]n2)c1            N
2  CN(C)CCCOc1ccc(C(=C(c2ccccc2)C2CCCC2)c2ccc(OCCCN(C)C)cc2)cc1            Y
3  COc1cc(C(=O)c2cc(C(C)=O)c3c(C)cccn23)cc(OC)c1OC            N
4  Cc1ccc(C(=O)CSc2nnc(-c3ccc(-c4ccc(Cl)cc4)nc3C)o2)cc1            N
5  CCC(=C(c1ccc(OCCN(C)C)cc1)c1ccc(OCCN(C)C)cc1)c1ccc(Cl)cc1            Y
6  O=C(Nc1ccc(Cl)c(C(F)(F)F)c1)Nc1ccc2c(ccn2C(=O)c2cccc(F)c2)c1            N
7  Cc1cc2nc(C(Cl)Cl)nc(-c3ccc(S(=O)(=O)N(C)C)cc3)n2n1            N
8  COc1ccc(/C=N/N=C(/c2ccccc2)c2ccc3nc(-c4ccc(Cl)cc4)[nH]c3c2)cc1            N

Then there is this compound:
Could you please tell me the result logged for C=C1CCc2nc(SCC(=O)O)ccc2N1 in this assay? N

====

Tested on: HOP-62 NSCLC
Assay: NCI-60 one-dose screen, 48 h (100 = growth as untreated, 0 = no growth, -100 = all killed)
Details: 10 µM unless noted
The panel holds about 83,000 compounds, 20% with a hit somewhere; the sample as a whole holds those more often.
Property Name: growth (%)
Number in %, nothing else.

These solved cases illustrate the format of a correct answer.
>>> df
                                   compound  tested_target  property_name  value_observed
0  NC(=O)n1c(=O)n(-c2cccc(C(F)(F)F)c2)c(=O)c2cc(-c3ccc(F)cc3F)ccc21   HOP-62 NSCLC         growth           -9.38
1  CC(C)NC(=O)c1cc(-c2ccc(NC(=O)Nc3ccc(F)cc3)cc2)nc2cccnc12   HOP-62 NSCLC         growth             101
2  CNC(=O)c1cc(N2CCc3cc(NC(=O)Nc4ccc(N5CCOCC5)c(C(F)(F)F)c4)ccc32)ccn1   HOP-62 NSCLC         growth            12.1
3             O=C(CCCCCC/C=C\c1csc(Br)n1)NO   HOP-62 NSCLC         growth            88.9
4  COc1ccc2[nH]cc(-c3nn4cc(-c5ccncc5)nc4s3)c2c1   HOP-62 NSCLC         growth            69.9

Proceed to the following item.
Report growth for CC(=O)Nc1cc(N2CCOCC2)c2nc(NC(=O)c3[nH]c(C)c(Cl)c3Cl)sc2c1 69.2

====

Test system: UO-31 renal
Test: NCI-60 one-dose screen, 48 h
Details: 10 µM unless noted
This is part of a sample that, as a whole, favours compounds with a hit. Of some 83,000 tested, about 20% had one in any assay. Active and inactive are the calls of the source. The calls were made as follows: active = growth percent below 10; inactive = the rest.
Valid outcomes are listed here; reply with one: active, inactive

Solved entries:
                                   compound  tested_target  label_value
0  CC(Nc1ncnc2ccc(-c3cnc(N)nc3)cc12)c1ccccc1 (stereo not given)    UO-31 renal       active
1  CCOC(=O)c1ccccc1NC1=C(Cl)C(=O)c2nc(C)ccc2C1=O    UO-31 renal     inactive
2  CCCC/C(=C\c1ccc(O)c(O)c1)C(=O)NC(Cc1ccccc1)C(=O)C(=O)NCCc1ccc(OC)cc1 (stereo not given)    UO-31 renal     inactive
3  CCN(CC)c1ccc(/C=N/NC(=O)c2ccc(S(N)(=O)=O)cc2)c(O)c1    UO-31 renal       active

Could you please tell me the result logged for CCCc1cc2cc(-n3nc(CC)c4c3CC(C)(C)CC4=O)cc(NC3CCC(O)CC3)c2c(=O)[nH]1 (stereo not given) in this assay? inactive

====

Tested on: SK-OV-3 ovarian
Assay: NCI-60 one-dose screen, 48 h
Settings: 10 µM unless noted
The panel holds about 83,000 compounds, 20% with a hit somewhere; the sample as a whole holds those more often. Calls of active or inactive are those of the source. How the source made its calls: active means growth percent below 10; inactive means the rest.
Valid outcomes are listed here; reply with one: TRUE = active, FALSE = inactive

Solved entries:
Compound	Label Value
COc1cccc2c1[C@H](OC)[C@]13O[C@@]1(C2=O)[C@H](O)[C@H](C)[C@@](O)(C(=O)[C@@H]1O[C@H]1C)[C@@H]3O	TRUE
O=C1c2ccccc2C23C(=C(c4cncnc4)c4ccccc42)CCCN13 (stereo not given)	FALSE
Cn1cc(-c2nn3cc(-c4ccncc4)nc3s2)c2cc(Br)ccc21	FALSE
Cc1csc(/N=C(N)/N=C(\N)c2cccs2)n1	FALSE
CN(C)S(=O)(=O)c1ccc(-c2nc(C(Cl)Cl)nc3cc(-c4ccc(F)cc4)nn23)cc1	TRUE
C#CCOc1ccc(-c2csc(NC(=O)C=C)n2)cc1NS(=O)(=O)c1cccc2c(N(C)C)cccc12	FALSE
CC1(C)CC[C@]2(C(=O)O)CC[C@]3(C)C(=CC[C@@H]4[C@@]5(C)CC[C@H](NOCCCN)C(C)(C)[C@@H]5CC[C@]43C)[C@@H]2C1	FALSE
C#C[C@]1(O)CC[C@H]2[C@@H]3CC=C4c5sc(Nc6cc(C)cc(C)c6)nc5CC[C@]4(C)[C@H]3CC[C@@]21C	TRUE

Could you please tell me the result logged for C=C(C)[C@@H]1CC[C@]2(C(=O)NC3CCCCC3)CC[C@]3(C)[C@H](CC[C@@H]4[C@@]5(C)CC[C@H](N)C(C)(C)[C@@H]5CC[C@]43C)[C@@H]12 in this assay? FALSE

Could you please tell me the result logged for Cc1ccc(S(=O)(=O)NCCCNc2nccc(-c3[nH]c(-c4ccccc4)nc3-c3ccc(F)c(O)c3)n2)cc1 in this assay? FALSE

Could you please tell me the result logged for Fc1cc(F)cc(NNC(=S)c2ccccc2)c1 in this assay? FALSE

Could you please tell me the result logged for Oc1[nH]c2ccc(Cl)cc2c1N=Nc1nc(N=Nc2c(O)[nH]c3ccc(Cl)cc23)nc(N2CCCCC2)n1 in this assay? FALSE

Could you please tell me the result logged for CC(=C(c1ccc(OCCN(C)C)cc1)c1ccc(OCCN(C)C)cc1)c1ccc(Cl)cc1 in this assay? FALSE

Could you please tell me the result logged for O=c1[nH][nH]c(-c2ccc(F)cc2)c1-c1nc2ccccc2s1 in this assay? FALSE

Could you please tell me the result logged for O=C(/C=C/c1ccc(F)cc1)Nc1cccc2cccnc12 in this assay? FALSE

Could you please tell me the result logged for CCN(CC)c1ccc(/C=N/NC(=O)c2ccc(S(N)(=O)=O)cc2)cc1 in this assay? FALSE

====

Test system: HCT-15 colon
Assay: NCI-60 one-dose screen, 48 h
Details: 10 µM unless noted
The panel holds about 83,000 compounds, 20% with a hit somewhere; the sample as a whole holds those more often. Active and inactive are the calls of the source. The calls were made as follows: active = growth percent below 10; inactive = the rest.
Valid outcomes are listed here; reply with one: 1 = active, -1 = inactive

Solved entries:
In [3]: df
Out[3]:
                           substance_smiles  tested_target  label_value
0  O=C1[C@H]2Cc3c([nH]c4ccccc34)[C@H](c3ccc(Br)cc3)N2C(=O)CN1C1CCN(CC2CCCCC2)CC1   HCT-15 colon           -1
1  COc1ccc([C@@H]2C(=O)N(c3cc(OC)c(OC)c(OC)c3)[C@H]2c2ccc(OC)c(O)c2)cc1   HCT-15 colon           -1
2  Cc1ccc(N2CCN(C3=C(Cl)C(=O)c4ncccc4C3=O)CC2)cc1   HCT-15 colon           -1
3  C/C(=C(\c1ccc(O)cc1)c1ccc(OCCN2CCCCCC2)cc1)c1ccc(Cl)cc1   HCT-15 colon            1

Then there is this compound:
Could you please tell me the result logged for COc1ccc2[nH]cc(/C=N/Nc3ccnc4cc(Cl)ccc34)c2c1 in this assay? 1

====

System: K-562 leukemia
Assay: NCI-60 one-dose screen, 48 h
Settings: 10 µM unless noted
Experimental: Cells are grown in 96 well plates and exposed to the test compound for 48 hours. Compounds are tested at a single concentration, which is 10^-5 M for most compounds. The reported endpoint is percent growth (GI% or GIPRCNT), where numbers from 0 - 100% represent growth inhibition, and numbers from -100% - 0 represent cell death. For example, a value of 40 represents 60% growth inhibition. A value of 0 means no net growth occurred over the course of the experiment. […]
The panel holds about 83,000 compounds, 20% with a hit somewhere; the sample as a whole holds those more often. Activity calls are given as the source filed them. How the source made its calls: active means growth percent below 10; inactive means the rest.
Valid outcomes are listed here; reply with one: active, inactive

Solved entries:
In [3]: df
Out[3]:
                                   compound  label_value
0  CCNC(=O)Oc1ccc(/C(=C(/C)c2ccc(OC)cc2)c2ccc(OCCN3CCCCCC3)cc2)cc1       active
1    CC(=O)Nc1nc(C)c(-c2csc(Nc3ccccc3)n2)s1     inactive

Could you please tell me the result logged for COc1cccc2c1[C@H](OC)[C@]13O[C@@]1(C2=O)[C@H](O)[C@H](C)[C@@](O)(C(=O)[C@@H]1O[C@H]1C)[C@@H]3O in this assay? active

Could you please tell me the result logged for Cc1[nH]c(C(=O)Nc2ccc(C(=O)NCC3CCNCC3)cc2OC(C)C)c(Cl)c1Cl in this assay? inactive

Could you please tell me the result logged for C/C(=C(\c1ccc(O)cc1)c1ccc(OCCN2CCCCCC2)cc1)c1ccc(Cl)cc1 in this assay? active

Could you please tell me the result logged for COc1ccccc1N1CCN(C2=C(Cl)C(=O)c3ncccc3C2=O)CC1 in this assay? active

Could you please tell me the result logged for Cc1ccc2c(n1)C(=O)C(Cl)=C(Nc1ccc(C#N)cc1)C2=O in this assay? active

Could you please tell me the result logged for N#Cc1c(-c2cccs2)cc(-c2cnccn2)nc1SCC(=O)N/N=C/c1cccs1 in this assay? inactive

Could you please tell me the result logged for CN(C)c1ccc(/C=N/Nc2nc(N/N=C/c3ccc(N(C)C)cc3)nc(N3CCCCC3)n2)cc1 in this assay? active

Could you please tell me the result logged for CCCCCN1C(=O)/C(=c2\sc3n(c2=O)C2C(NN=3)N(CC)C(=O)N2CC)c2cccc(C)c21 (stereo unspecified) in this assay? inactive
